Assay: Cytotoxicity against human HCT116 cells after 96 hrs by CCK-8 assay
Assay type: functional, cell-based
Details: HCT-116, 96 h
MEASURED PROPERTY: IC50 (µM)
Field: numeric (µM). Do not append units.

Requested field: IC50. Item: `O=C1/C(=C\c2ccc(O)c(O)c2)Oc2ccccc21`
13.4

* * *

Molecular target: Vascular endothelial growth factor receptor 1 (Homo sapiens, UniProt P17948)
Sequence (P17948 whole entry): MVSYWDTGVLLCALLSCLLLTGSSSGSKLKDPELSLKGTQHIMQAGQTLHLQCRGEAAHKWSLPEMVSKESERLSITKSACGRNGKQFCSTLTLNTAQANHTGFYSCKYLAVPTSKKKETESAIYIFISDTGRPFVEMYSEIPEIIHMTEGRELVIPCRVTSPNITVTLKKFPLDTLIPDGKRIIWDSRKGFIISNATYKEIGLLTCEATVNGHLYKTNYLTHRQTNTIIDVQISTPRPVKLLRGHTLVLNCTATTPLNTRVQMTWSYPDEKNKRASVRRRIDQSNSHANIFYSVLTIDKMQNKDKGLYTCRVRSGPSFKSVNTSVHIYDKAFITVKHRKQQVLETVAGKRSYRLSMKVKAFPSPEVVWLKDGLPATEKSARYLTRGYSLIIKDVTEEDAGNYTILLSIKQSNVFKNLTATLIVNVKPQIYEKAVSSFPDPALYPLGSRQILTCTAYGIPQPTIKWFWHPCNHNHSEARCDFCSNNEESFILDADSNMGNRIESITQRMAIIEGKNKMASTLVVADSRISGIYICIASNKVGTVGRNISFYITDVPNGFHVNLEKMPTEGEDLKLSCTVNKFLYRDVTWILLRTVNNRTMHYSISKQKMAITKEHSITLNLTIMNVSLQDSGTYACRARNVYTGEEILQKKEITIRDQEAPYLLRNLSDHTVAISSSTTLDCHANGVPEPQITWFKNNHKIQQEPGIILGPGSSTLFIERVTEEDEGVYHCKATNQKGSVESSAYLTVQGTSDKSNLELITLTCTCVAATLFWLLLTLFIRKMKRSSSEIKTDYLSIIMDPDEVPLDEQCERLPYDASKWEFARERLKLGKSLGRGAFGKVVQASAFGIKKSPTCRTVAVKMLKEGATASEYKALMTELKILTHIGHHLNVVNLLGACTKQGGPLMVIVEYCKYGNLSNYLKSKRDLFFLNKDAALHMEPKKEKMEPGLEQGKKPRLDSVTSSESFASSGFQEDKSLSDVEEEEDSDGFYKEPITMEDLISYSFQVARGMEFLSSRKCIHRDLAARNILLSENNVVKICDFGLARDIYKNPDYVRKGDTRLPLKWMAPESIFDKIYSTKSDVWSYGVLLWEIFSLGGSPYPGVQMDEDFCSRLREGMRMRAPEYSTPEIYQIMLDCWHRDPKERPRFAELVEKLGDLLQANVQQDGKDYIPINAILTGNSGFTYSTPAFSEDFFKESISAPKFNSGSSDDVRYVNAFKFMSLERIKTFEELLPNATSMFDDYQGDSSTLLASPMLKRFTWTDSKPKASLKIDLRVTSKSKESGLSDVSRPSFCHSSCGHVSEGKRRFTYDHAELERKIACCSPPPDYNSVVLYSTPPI
Test: Inhibition of recombinant FLT1 (unknown origin) after 60 mins by z'-lyte kinase assay
MEASURED PROPERTY: pIC50
Please report pIC50 as the negative decimal logarithm of the molar concentration, giving only the number.

# returns recorded pIC50 (system: Vascular endothelial growth factor receptor 1 (Homo sapiens, UniProt P17948)) for `O=C1/C(=C\c2ccc(O)c(O)c2)Oc2ccccc21`
5.43

* * *

Test system: HeLa
Assay: Cytotoxicity against human HeLa cells after 96 hrs by CCK-8 assay
Type: functional, cell-based
MEASURED PROPERTY: pIC50
Friendly reminder that pIC50 comes from taking -log10 of the concentration in mol/L.

Find the measured pIC50: item `O=C1/C(=C\c2ccc(O)c(O)c2)Oc2ccccc21` , target or system HeLa.
4.87

* * *

Molecular target: Casein kinase I isoform alpha (Homo sapiens, UniProt P48729)
Sequence (P48729 whole entry, canonical isoform): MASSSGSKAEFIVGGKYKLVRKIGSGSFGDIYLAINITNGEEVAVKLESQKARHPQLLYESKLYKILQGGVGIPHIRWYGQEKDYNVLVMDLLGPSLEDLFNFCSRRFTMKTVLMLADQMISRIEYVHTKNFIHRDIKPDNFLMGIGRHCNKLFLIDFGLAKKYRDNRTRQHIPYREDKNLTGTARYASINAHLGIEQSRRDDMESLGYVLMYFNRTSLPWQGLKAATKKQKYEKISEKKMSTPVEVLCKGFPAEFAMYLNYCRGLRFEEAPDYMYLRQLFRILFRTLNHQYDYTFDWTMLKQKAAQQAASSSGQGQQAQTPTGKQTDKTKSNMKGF
Test: Inhibition of recombinant CK1 alpha1 (unknown origin) after 60 mins by z'-lyte kinase assay
MEASURED PROPERTY: pIC50
A value of pIC50 is the negative decimal logarithm of a concentration given in moles per litre.

# pIC50 lookup, item `O=C1/C(=C\c2ccc(O)c(O)c2)Oc2ccccc21`
4.10

* * *

Biological target: Aurora kinase B (Homo sapiens, UniProt Q96GD4)
Sequence (Q96GD4 whole entry): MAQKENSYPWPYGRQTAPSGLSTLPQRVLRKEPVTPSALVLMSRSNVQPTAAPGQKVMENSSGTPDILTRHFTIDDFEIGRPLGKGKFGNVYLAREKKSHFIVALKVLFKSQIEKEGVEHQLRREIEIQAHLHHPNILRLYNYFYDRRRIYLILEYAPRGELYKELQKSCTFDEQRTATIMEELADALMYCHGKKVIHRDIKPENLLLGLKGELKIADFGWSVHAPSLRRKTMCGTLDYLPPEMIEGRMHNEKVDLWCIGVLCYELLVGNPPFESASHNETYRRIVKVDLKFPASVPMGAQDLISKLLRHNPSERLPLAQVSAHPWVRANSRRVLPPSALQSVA
MEASURED PROPERTY: Kd (µM)
Number in µM, nothing else.

Form field: Kd recorded for `O=C1/C(=C\c2ccc(O)c(O)c2)Oc2ccccc21` with Aurora kinase B (Homo sapiens, UniProt Q96GD4) (enter value)
3.06

* * *

Assay: Cytotoxicity against human CaSki cells after 96 hrs by CCK-8 assay
Assay type: functional, cell-based
Conditions: Ca-Ski
MEASURED PROPERTY: IC50

Need IC50 of `O=C1/C(=C\c2ccc(O)c(O)c2)Oc2ccccc21` , thanks.
> 50 µM

* * *

Test: Cytotoxicity against human Hep3B cells after 96 hrs by CCK-8 assay
Type: functional, cell-based, Hep 3B2
MEASURED PROPERTY: IC50

Any idea what IC50 was measured for `O=C1/C(=C\c2ccc(O)c(O)c2)Oc2ccccc21` ?
28.7 µM

* * *

Assay: Cytotoxicity against human QGY7401 cells after 96 hrs by CCK-8 assay
Type: functional, cell-based
MEASURED PROPERTY: IC50

Find the recorded IC50 belonging to `O=C1/C(=C\c2ccc(O)c(O)c2)Oc2ccccc21` and report it.
19.8 µM

* * *

Biological target: Aurora kinase A (Homo sapiens)
Sequence (O14965 whole entry): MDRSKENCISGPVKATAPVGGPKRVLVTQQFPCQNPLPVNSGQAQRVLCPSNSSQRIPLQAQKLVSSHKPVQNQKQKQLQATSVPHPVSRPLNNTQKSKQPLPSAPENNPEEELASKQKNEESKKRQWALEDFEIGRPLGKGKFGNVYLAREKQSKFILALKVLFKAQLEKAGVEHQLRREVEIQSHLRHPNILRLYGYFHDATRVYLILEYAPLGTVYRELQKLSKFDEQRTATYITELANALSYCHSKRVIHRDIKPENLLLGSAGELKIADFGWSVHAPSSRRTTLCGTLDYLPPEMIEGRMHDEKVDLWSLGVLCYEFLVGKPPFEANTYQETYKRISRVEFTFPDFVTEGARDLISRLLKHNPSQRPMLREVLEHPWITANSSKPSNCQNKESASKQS
MEASURED PROPERTY: pKd
Scale: negative log10 of molar concentration, which is what pKd denotes.

Give the measured pKd of `O=C1/C(=C\c2ccc(O)c(O)c2)Oc2ccccc21` .
4.89

* * *

Test: Cytotoxicity against human SKHEP1 cells after 96 hrs by CCK-8 assay
Type: functional, cell-based
Settings: SK-HEP1, 96 h
MEASURED PROPERTY: IC50 (µM)
Response body: numeric value in µM, unit text excluded.

Recorded IC50 of `O=C1/C(=C\c2ccc(O)c(O)c2)Oc2ccccc21` , please.
41.9

* * *

Target: RAC-alpha serine/threonine-protein kinase (Homo sapiens, UniProt P31749)
Assay: Inhibition of recombinant AKT1 (unknown origin) after 60 mins by z'-lyte kinase assay
MEASURED PROPERTY: pIC50
// returns pIC50 (minus log10 of molar concentration), number only

Please look up its pIC50: `O=C1/C(=C\c2ccc(O)c(O)c2)Oc2ccccc21`
4.41

* * *

Target: Platelet-derived growth factor receptor alpha (Homo sapiens, UniProt P16234)
Sequence (P16234 whole entry): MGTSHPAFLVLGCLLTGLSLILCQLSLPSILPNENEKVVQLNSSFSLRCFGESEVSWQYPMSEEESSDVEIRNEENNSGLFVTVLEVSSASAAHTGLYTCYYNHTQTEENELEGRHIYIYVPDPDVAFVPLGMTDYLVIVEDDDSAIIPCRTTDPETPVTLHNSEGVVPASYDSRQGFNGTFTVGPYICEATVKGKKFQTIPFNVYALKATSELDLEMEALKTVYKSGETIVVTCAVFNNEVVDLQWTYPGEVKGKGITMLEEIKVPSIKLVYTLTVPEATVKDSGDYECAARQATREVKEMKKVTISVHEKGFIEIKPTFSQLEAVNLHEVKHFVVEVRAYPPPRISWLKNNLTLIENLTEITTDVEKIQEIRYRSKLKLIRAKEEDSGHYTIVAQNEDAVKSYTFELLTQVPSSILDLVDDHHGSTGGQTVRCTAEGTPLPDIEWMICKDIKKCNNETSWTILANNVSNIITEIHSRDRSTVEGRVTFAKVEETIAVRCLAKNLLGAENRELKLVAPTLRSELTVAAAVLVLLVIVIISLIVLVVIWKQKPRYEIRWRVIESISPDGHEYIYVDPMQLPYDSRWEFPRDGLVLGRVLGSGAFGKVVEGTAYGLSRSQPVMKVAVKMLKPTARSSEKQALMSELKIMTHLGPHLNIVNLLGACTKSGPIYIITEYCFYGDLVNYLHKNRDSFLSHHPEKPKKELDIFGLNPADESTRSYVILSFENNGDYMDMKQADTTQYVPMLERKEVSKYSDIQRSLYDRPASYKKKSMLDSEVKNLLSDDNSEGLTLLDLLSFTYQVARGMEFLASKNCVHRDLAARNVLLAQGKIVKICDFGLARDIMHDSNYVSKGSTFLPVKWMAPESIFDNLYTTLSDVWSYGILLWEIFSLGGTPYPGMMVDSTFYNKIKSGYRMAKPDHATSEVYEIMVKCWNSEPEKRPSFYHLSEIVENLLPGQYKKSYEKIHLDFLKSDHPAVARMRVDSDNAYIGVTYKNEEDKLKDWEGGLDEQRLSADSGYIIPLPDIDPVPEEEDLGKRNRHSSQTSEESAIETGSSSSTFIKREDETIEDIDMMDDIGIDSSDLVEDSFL
Experiment: Inhibition of recombinant PDGFR alpha (unknown origin) after 60 mins by z'-lyte kinase assay
MEASURED PROPERTY: IC50 (µM)
Report the value in µM with no unit label.

Which IC50 reading was recorded for the compound `O=C1/C(=C\c2ccc(O)c(O)c2)Oc2ccccc21` ?
4.04

* * *

Molecular target: Protein kinase C alpha type (Homo sapiens, UniProt P17252)
Assay: Inhibition of recombinant PKC alpha (unknown origin) after 60 mins by z'-lyte kinase assay
MEASURED PROPERTY: IC50 (µM)
Just the number in µM, nothing appended.

Returns the measured IC50 for the input molecule. Input: `O=C1/C(=C\c2ccc(O)c(O)c2)Oc2ccccc21`
26.8

* * *

System: MDA-MB-231
Assay: Cytotoxicity against human MDA-MB-231 cells after 96 hrs by CCK-8 assay
Assay type: functional, cell-based
Conditions: MDA-MB-231, 96 h
pIC50: −log10 of the molar value.
MEASURED PROPERTY: pIC50

# query: pIC50 | item `O=C1/C(=C\c2ccc(O)c(O)c2)Oc2ccccc21` | system: MDA-MB-231
< 4.30

* * *

Molecular target: Cyclin-dependent kinase 1/cyclin B1 (Homo sapiens, UniProt P06493)
Sequence (P06493 whole entry): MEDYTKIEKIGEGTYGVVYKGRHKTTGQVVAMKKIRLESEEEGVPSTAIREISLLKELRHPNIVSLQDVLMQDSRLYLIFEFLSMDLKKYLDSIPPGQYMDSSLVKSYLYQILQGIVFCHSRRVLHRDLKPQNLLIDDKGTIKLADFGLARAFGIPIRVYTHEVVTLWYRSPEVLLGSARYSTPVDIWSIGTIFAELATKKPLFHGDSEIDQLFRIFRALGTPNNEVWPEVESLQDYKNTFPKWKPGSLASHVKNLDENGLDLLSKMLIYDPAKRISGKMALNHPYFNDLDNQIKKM
Sequence (P14635 whole entry, further chain): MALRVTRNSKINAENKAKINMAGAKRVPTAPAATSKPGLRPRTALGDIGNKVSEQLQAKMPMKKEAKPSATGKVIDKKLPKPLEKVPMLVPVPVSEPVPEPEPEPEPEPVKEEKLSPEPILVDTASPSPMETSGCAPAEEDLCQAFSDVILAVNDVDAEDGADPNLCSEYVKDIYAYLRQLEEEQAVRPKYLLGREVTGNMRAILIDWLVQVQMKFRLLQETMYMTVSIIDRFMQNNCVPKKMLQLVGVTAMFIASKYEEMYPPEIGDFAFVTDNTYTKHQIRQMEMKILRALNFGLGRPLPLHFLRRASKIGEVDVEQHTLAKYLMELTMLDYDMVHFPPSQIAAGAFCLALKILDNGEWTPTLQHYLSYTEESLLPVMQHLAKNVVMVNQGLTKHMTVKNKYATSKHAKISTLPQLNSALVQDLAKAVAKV
Assay: Inhibition of recombinant CDK1/cyclin B (unknown origin) after 60 mins by z'-lyte kinase assay
MEASURED PROPERTY: IC50 (µM)
Response body: numeric value in µM, unit text excluded.

# lookup: IC50 of `O=C1/C(=C\c2ccc(O)c(O)c2)Oc2ccccc21`
37.4

* * *

Test system: SW-620
Experiment: Cytotoxicity against human SW620 cells after 96 hrs by CCK-8 assay
Assay type: functional, cell-based
Conditions: SW-620, 96 h
MEASURED PROPERTY: pIC50
Keep it numeric: pIC50 is minus log10 of the concentration in mol/L.

Would you mind telling me what pIC50 value was observed for `O=C1/C(=C\c2ccc(O)c(O)c2)Oc2ccccc21` ?
5.41

* * *

Assay: Cytotoxicity against human HuH7 cells after 96 hrs by CCK-8 assay
Type: functional, cell-based
Conditions: Huh-7, 96 h
MEASURED PROPERTY: IC50 (µM)
# unit: µM | format: bare number

Data request, read-out IC50, for `O=C1/C(=C\c2ccc(O)c(O)c2)Oc2ccccc21`
21.1

* * *

Molecular target: Aurora kinase C (Homo sapiens)
Sequence (Q9UQB9 whole entry): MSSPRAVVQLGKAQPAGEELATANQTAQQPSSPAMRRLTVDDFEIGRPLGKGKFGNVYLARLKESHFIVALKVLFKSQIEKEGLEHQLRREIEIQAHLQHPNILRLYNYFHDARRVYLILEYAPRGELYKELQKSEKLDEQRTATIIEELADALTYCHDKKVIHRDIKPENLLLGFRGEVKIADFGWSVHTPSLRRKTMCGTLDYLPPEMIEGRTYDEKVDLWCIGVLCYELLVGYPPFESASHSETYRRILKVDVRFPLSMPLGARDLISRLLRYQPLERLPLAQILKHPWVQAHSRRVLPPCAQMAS
Test: Inhibition of recombinant AURKC (unknown origin) after 60 mins by z'-lyte kinase assay
MEASURED PROPERTY: pIC50
In simple prose, pIC50 is minus the logarithm base ten of a concentration in moles per litre.

Can you share its pIC50? I mean this molecule: `O=C1/C(=C\c2ccc(O)c(O)c2)Oc2ccccc21`
5.32

* * *

Biological target: UniProt Q96GD4
Assay: Inhibition of recombinant AURKB (unknown origin) after 60 mins by z'-lyte kinase assay
MEASURED PROPERTY: pIC50
Reminder that pIC50 is minus the log10 of a molar concentration.

Which measured pIC50 value corresponds to `O=C1/C(=C\c2ccc(O)c(O)c2)Oc2ccccc21` ?
6.13

* * *

Target: Serine/threonine-protein kinase Nek1 (Homo sapiens)
Sequence (Q96PY6 whole entry): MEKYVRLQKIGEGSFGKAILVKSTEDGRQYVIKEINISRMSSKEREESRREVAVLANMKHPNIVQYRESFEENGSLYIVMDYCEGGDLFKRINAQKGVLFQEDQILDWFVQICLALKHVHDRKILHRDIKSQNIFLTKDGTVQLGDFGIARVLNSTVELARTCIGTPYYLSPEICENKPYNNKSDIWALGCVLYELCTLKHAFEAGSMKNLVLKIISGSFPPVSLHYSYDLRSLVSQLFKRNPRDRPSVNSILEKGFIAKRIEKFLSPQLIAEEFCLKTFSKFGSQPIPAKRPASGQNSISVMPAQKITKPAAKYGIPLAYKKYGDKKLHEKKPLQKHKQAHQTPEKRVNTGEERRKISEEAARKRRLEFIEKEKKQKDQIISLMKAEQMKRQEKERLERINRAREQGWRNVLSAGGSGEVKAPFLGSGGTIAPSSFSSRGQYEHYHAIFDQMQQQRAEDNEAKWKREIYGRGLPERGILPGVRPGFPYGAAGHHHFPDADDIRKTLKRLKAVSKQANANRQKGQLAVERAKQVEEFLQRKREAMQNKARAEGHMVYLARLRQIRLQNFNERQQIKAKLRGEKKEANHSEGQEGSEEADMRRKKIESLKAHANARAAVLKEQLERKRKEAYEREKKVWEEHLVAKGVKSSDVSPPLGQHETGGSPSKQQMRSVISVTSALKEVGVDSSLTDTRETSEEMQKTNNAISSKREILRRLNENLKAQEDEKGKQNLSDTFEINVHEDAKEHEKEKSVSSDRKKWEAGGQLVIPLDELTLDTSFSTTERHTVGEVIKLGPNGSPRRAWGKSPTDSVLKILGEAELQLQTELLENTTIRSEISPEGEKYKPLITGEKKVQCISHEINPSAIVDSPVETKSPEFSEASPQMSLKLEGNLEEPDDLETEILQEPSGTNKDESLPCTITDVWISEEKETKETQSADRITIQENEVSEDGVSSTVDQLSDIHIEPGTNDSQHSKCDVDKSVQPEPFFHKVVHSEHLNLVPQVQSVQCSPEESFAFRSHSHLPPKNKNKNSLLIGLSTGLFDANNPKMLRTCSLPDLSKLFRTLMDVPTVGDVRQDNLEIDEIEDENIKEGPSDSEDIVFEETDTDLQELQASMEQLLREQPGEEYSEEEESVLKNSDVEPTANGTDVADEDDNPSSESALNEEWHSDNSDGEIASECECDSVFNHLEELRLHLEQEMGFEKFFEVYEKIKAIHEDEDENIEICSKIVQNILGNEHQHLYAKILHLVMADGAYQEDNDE
Test: Inhibition of recombinant NEK1 (unknown origin) after 60 mins by z'-lyte kinase assay
MEASURED PROPERTY: IC50 (µM)
Answer with a number only, understood to be in µM.

Would you mind telling me what IC50 value was observed for `O=C1/C(=C\c2ccc(O)c(O)c2)Oc2ccccc21` ?
11.5
